# protocol.text: Plasma pharmacokinetics, multiple-ascending-dose phase 1 study
# Type: in vivo, human
# condition.info: human, plasma, po, 400 mg, 400 mg Q12h oral, day 1; median (minimum, maximum); read-out: Plasma t1/2 (converted)
# Method: This study was conducted in full accordance with the Declaration of Helsinki and good clinical practices (GCP) at Quintiles Phase One Services in Overland Park, KS. […] After a screening period of up to 35 days, eligible subjects were admitted to the study center for baseline evaluations on day −1. […] During the inpatient period, subjects were monitored for safety and pharmacokinetics (PK). […]

| cpd.smiles | half-life |
| --- | --- |
| O=c1cc(NCCCN[C@@H]2CCOc3c(Br)cc(Br)cc32)[nH]c2ccsc12 | 3.61 h |

###

# protocol.text: Plasma pharmacokinetics, multiple-ascending-dose phase 1 study
# Assay type: in vivo, human
# condition.info: human, plasma; 200 mg Q12h oral, day 1; geometric mean (%CV); read-out: Plasma AUC (AUC0–12)

| cpd.smiles | value.unit | AUC(0-t) |
| --- | --- | --- |
| O=c1cc(NCCCN[C@@H]2CCOc3c(Br)cc(Br)cc32)[nH]c2ccsc12 | ng·h/mL | 1550 |

###

# protocol.text: Plasma pharmacokinetics, multiple-ascending-dose phase 1 study
# Format: in vivo, human
# condition.info: human, plasma, oral, 600 mg, 600 mg Q12h, day 1; geometric mean; read-out: Plasma t1/2 (converted)
measured.quantity: half-life (h)

| compound | measured.quantity | value.unit | recorded.measurement |
| --- | --- | --- | --- |
| O=c1cc(NCCCN[C@@H]2CCOc3c(Br)cc(Br)cc32)[nH]c2ccsc12 [CRS3123] | half-life | h | 3.04 |

###

# protocol.text: Plasma pharmacokinetics, multiple-ascending-dose phase 1 study
# Type: in vivo, human
# condition.info: human, plasma, oral; 600 mg Q12h, day 1; median; read-out: Plasma AUC(0-12)

| cpd.smiles | AUC(0-t) |
| --- | --- |
| O=c1cc(NCCCN[C@@H]2CCOc3c(Br)cc(Br)cc32)[nH]c2ccsc12 | 3630 ng·h/mL |

###

# protocol.text: Plasma pharmacokinetics, multiple-ascending-dose phase 1 study
# Format: in vivo, human
# condition.info: human, plasma, oral, after 10 days twice-daily; range across the three dose groups; read-out: geometric mean t1/2,ss

| cpd.smiles | half-life |
| --- | --- |
| O=c1cc(NCCCN[C@@H]2CCOc3c(Br)cc(Br)cc32)[nH]c2ccsc12 | 5 to 6 h |

###

# protocol.text: Plasma pharmacokinetics, multiple-ascending-dose phase 1 study
# Type: in vivo, human
# condition.info: human, plasma, oral, 200 mg, 200 mg Q12h, day 1; median; read-out: Plasma Cmax
measured.quantity: Cmax (ng/mL)

| compound | measured.quantity | value.unit | recorded.measurement |
| --- | --- | --- | --- |
| O=c1cc(NCCCN[C@@H]2CCOc3c(Br)cc(Br)cc32)[nH]c2ccsc12 [CRS3123] | Cmax | ng/mL | 342 |

###

# protocol.text: Plasma pharmacokinetics, multiple-ascending-dose phase 1 study
# Assay type: in vivo, human
# condition.info: human, plasma, oral, 400 mg, 400 mg Q12h, day 10; geometric mean; read-out: Vz/F,ss
measured.quantity: Vd/F (L)

| cpd.smiles | value.unit | recorded.measurement |
| --- | --- | --- |
| O=c1cc(NCCCN[C@@H]2CCOc3c(Br)cc(Br)cc32)[nH]c2ccsc12 | L | 937 |
